Task for the reader: assign each of the following compounds its reported Plasma Stability Human (1 hour): percent of prodrug metabolized to riluzole.
# ASSAY_EXPLANATION: Plasma stability in fresh human plasma
# Assay type: in vitro ADME
# ASSAY_CONDITIONS: 1 uM, 37° C.
Numbers only, in %.

Please review the entries below; each comes with its answer.
{"columns": ["STRUCTURE_NOTATION", "VALUE_OBSERVED"],
 "data": [
  ["CC(C)[C@H](N)C(=O)Nc1nc2ccc(OC(F)(F)F)cc2s1", 11],
  ["N[C@H](Cc1ccccc1)C(=O)Nc1nc2ccc(OC(F)(F)F)cc2s1", 6],
  ["CN(C)CCCOC(=O)Nc1nc2ccc(OC(F)(F)F)cc2s1", 0],
  ["O=C(Cc1ccccc1[N+](=O)[O-])Nc1nc2ccc(OC(F)(F)F)cc2s1", 13]
]}

For every item in the list below, what is its measured Plasma Stability Human (1 hour): percent of prodrug metabolized to riluzole?
1. N[C@@H](Cc1ccccc1)C(=O)Nc1nc2ccc(OC(F)(F)F)cc2s1
2. CC(C)COC(=O)Nc1nc2ccc(OC(F)(F)F)cc2s1
3. C[C@H](N)C(=O)Nc1nc2ccc(OC(F)(F)F)cc2s1
4. NCCCCC(=O)Nc1nc2ccc(OC(F)(F)F)cc2s1
5. CN(C)CCOC(=O)Nc1nc2ccc(OC(F)(F)F)cc2s1
6. CCOC(=O)Nc1nc2ccc(OC(F)(F)F)cc2s1
7. C[C@@H](N)C(=O)Nc1nc2ccc(OC(F)(F)F)cc2s1
8. COC(=O)CCC(=O)Nc1nc2ccc(OC(F)(F)F)cc2s1

RESULT:
1. 7
2. 0
3. 10
4. 5
5. 0
6. 0
7. 15
8. 25

Okay, here is my list. What is Plasma Stability Human (1 hour): percent of prodrug metabolized to riluzole for each of these?
1. N[C@H](COCc1ccccc1)C(=O)Nc1nc2ccc(OC(F)(F)F)cc2s1
2. CNCCCCC(=O)Nc1nc2ccc(OC(F)(F)F)cc2s1
3. O=C(CCC(=O)Nc1nc2ccc(OC(F)(F)F)cc2s1)NCc1cccnc1
4. Nc1ccc(C(=O)Nc2nc3ccc(OC(F)(F)F)cc3s2)cc1
5. CCCCOC(=O)Nc1nc2ccc(OC(F)(F)F)cc2s1
6. COC(=O)Nc1nc2ccc(OC(F)(F)F)cc2s1
7. CCCOC(=O)Nc1nc2ccc(OC(F)(F)F)cc2s1
8. O=C(O)CCC(=O)Nc1nc2ccc(OC(F)(F)F)cc2s1

RESULT:
3
0
0
0
0
15
0
16

----------
# ASSAY_EXPLANATION: Metabolic stability in pooled mouse liver microsomes
# Assay type: in vitro ADME
# ASSAY_CONDITIONS: mouse liver microsomes 0.5 mg/mL, 1 uM, 37° C., NADPH
Assignment: determine reported Metabolic Stability mouse (30 minutes): percent of prodrug metabolized to riluzole for the given molecules.
One number for each entry, in %.

Example molecules with recorded Metabolic Stability mouse (30 minutes): percent of prodrug metabolized to riluzole:
{"columns": ["MOLECULE", "VALUE_OBSERVED"],
 "data": [
  ["COC(=O)CCC(=O)Nc1nc2ccc(OC(F)(F)F)cc2s1 [Cpd 21]", 77],
  ["N[C@@H](Cc1ccccc1)C(=O)Nc1nc2ccc(OC(F)(F)F)cc2s1 [Cpd 9]", 2],
  ["C[C@@H](N)C(=O)Nc1nc2ccc(OC(F)(F)F)cc2s1 [Cpd 2]", 10],
  ["NCCCCC(=O)Nc1nc2ccc(OC(F)(F)F)cc2s1 [Cpd 26]", 66]
]}

QUERY: Bench note: what Metabolic Stability mouse (30 minutes): percent of prodrug metabolized to riluzole did CN(C)CCCOC(=O)Nc1nc2ccc(OC(F)(F)F)cc2s1 [Cpd 19] show?
RESULT: 71

----------
Task for the reader: assign each of the following compounds its reported SIF (3 hours): percent of prodrug metabolized to riluzole.
# ASSAY_EXPLANATION: Stability in Simulated Intestinal Fluid (SIF)
# Assay type: in vitro ADME
# ASSAY_CONDITIONS: 37° C., 0.01 mg/mL
# Procedure: Stability in Simulated Gastric Fluid (SGF) and Simulated Intestinal Fluid (SIF). Procedure from Baudy et. al. (J. Med. Chem. 2009, 52, 771-778) used. The physiological stability of prodrugs was determined by examining the stability of the compound in SGF, and SIF at 37° C. […] The percent remaining of prodrug was calculated by comparing the area of prodrug compound versus riluzole generated. […]
One number for each entry, in %.

{"columns": ["STRUCTURE_NOTATION", "VALUE_OBSERVED"],
 "data": [
  ["O=C(O)CCC(=O)Nc1nc2ccc(OC(F)(F)F)cc2s1", 0],
  ["CN(C)CCCOC(=O)Nc1nc2ccc(OC(F)(F)F)cc2s1", 0]
]}

Return reported SIF (3 hours): percent of prodrug metabolized to riluzole values for all items listed beneath this line.
1. O=C(Cc1ccccc1[N+](=O)[O-])Nc1nc2ccc(OC(F)(F)F)cc2s1
2. O=C(CCC(=O)Nc1nc2ccc(OC(F)(F)F)cc2s1)NCc1cccnc1
3. CC(C)(C)OC(=O)CCC(=O)Nc1nc2ccc(OC(F)(F)F)cc2s1
4. CC(C)COC(=O)Nc1nc2ccc(OC(F)(F)F)cc2s1
5. CN(C)CCOC(=O)Nc1nc2ccc(OC(F)(F)F)cc2s1

RESULT:
[0, 10, 0, 0, 0]

Would you mind giving SIF (3 hours): percent of prodrug metabolized to riluzole for every compound in the list below?
1. CCOC(=O)Nc1nc2ccc(OC(F)(F)F)cc2s1
2. NCCCCC(=O)Nc1nc2ccc(OC(F)(F)F)cc2s1
3. COC(=O)CCC(=O)Nc1nc2ccc(OC(F)(F)F)cc2s1
4. C[C@@H](N)C(=O)Nc1nc2ccc(OC(F)(F)F)cc2s1
5. N[C@H](Cc1ccccc1)C(=O)Nc1nc2ccc(OC(F)(F)F)cc2s1

RESULT:
1: 0; 2: 0; 3: 0; 4: 50; 5: 0

----------
# ASSAY_EXPLANATION: Stability in Simulated Gastric Fluid (SGF)
# Format: in vitro ADME
# ASSAY_CONDITIONS: 37° C., 0.01 mg/mL
VALUE_KIND: SGF (3 hours): percent of prodrug metabolized to riluzole (%)
Numbers only, in %.

Sample answers from the record:
{"columns": ["STRUCTURE_NOTATION", "VALUE_UNIT", "VALUE_OBSERVED"],
 "data": [
  ["COC(=O)Nc1nc2ccc(OC(F)(F)F)cc2s1", "%", 0],
  ["CN(C)CCCOC(=O)Nc1nc2ccc(OC(F)(F)F)cc2s1", "%", 0]
]}

Report SGF (3 hours): percent of prodrug metabolized to riluzole for each item below.
1. CCCCCCOC(=O)Nc1nc2ccc(OC(F)(F)F)cc2s1
2. N[C@H](Cc1ccccc1)C(=O)Nc1nc2ccc(OC(F)(F)F)cc2s1
3. CCOC(=O)Nc1nc2ccc(OC(F)(F)F)cc2s1
4. CCCCOC(=O)Nc1nc2ccc(OC(F)(F)F)cc2s1
5. COC(=O)CCC(=O)Nc1nc2ccc(OC(F)(F)F)cc2s1

RESULT:
0
3
0
0
3

Provide reported SGF (3 hours): percent of prodrug metabolized to riluzole for each item, in the same order as listed.
1. O=C(O)CCC(=O)Nc1nc2ccc(OC(F)(F)F)cc2s1
2. C[C@@H](N)C(=O)Nc1nc2ccc(OC(F)(F)F)cc2s1
3. CC(C)COC(=O)Nc1nc2ccc(OC(F)(F)F)cc2s1
4. O=C(Cc1ccccc1[N+](=O)[O-])Nc1nc2ccc(OC(F)(F)F)cc2s1
5. CCCOC(=O)Nc1nc2ccc(OC(F)(F)F)cc2s1
6. NCCCCC(=O)Nc1nc2ccc(OC(F)(F)F)cc2s1

RESULT:
0
0
5
0
0
0

Each compound below has a reported value. Please supply its SGF (3 hours): percent of prodrug metabolized to riluzole.
1. O=C(CCC(=O)Nc1nc2ccc(OC(F)(F)F)cc2s1)NCCN1CCOCC1
2. NCC1(CC(=O)Nc2nc3ccc(OC(F)(F)F)cc3s2)CCCCC1

RESULT:
0
0

I'm hoping you can list SGF (3 hours): percent of prodrug metabolized to riluzole for every compound here, please.
1. CN(C)CCOC(=O)Nc1nc2ccc(OC(F)(F)F)cc2s1
2. CC(C)(C)OC(=O)CCC(=O)Nc1nc2ccc(OC(F)(F)F)cc2s1

RESULT:
0
0

QUERY: Find the recorded SGF (3 hours): percent of prodrug metabolized to riluzole belonging to `CC(C)[C@H](N)C(=O)Nc1nc2ccc(OC(F)(F)F)cc2s1` and report it.
RESULT: 0

----------
Kindly state Metabolic Stability human (30 minutes): percent of prodrug metabolized to riluzole for each of the entries shown.
# ASSAY_EXPLANATION: Metabolic stability in pooled human liver microsomes
# Type: in vitro ADME
# ASSAY_CONDITIONS: human liver microsomes 0.5 mg/mL, 1 uM, 37° C., NADPH
Answers are plain numbers, in %.

Below, 10 compounds whose answers are already recorded.
{"columns": ["COMPOUND", "VALUE_UNIT", "VALUE_OBSERVED"],
 "data": [
  ["C[C@@H](N)C(=O)Nc1nc2ccc(OC(F)(F)F)cc2s1 [Cpd 2]", "%", 4],
  ["O=C(O)CCC(=O)Nc1nc2ccc(OC(F)(F)F)cc2s1 [Cpd 20]", "%", 0],
  ["N[C@H](COCc1ccccc1)C(=O)Nc1nc2ccc(OC(F)(F)F)cc2s1 [Cpd 5]", "%", 0],
  ["N[C@H](Cc1ccccc1)C(=O)Nc1nc2ccc(OC(F)(F)F)cc2s1 [Cpd 4]", "%", 18],
  ["CN(C)CCOC(=O)Nc1nc2ccc(OC(F)(F)F)cc2s1 [Cpd 18]", "%", 10],
  ["CCCCOC(=O)Nc1nc2ccc(OC(F)(F)F)cc2s1 [Cpd 15]", "%", 13],
  ["Nc1ccc(C(=O)Nc2nc3ccc(OC(F)(F)F)cc3s2)cc1 [Cpd 28]", "%", 80],
  ["CN(C)CCCOC(=O)Nc1nc2ccc(OC(F)(F)F)cc2s1 [Cpd 19]", "%", 0],
  ["CC(C)[C@H](N)C(=O)Nc1nc2ccc(OC(F)(F)F)cc2s1 [Cpd 11]", "%", 6],
  ["O=C(CCC(=O)Nc1nc2ccc(OC(F)(F)F)cc2s1)NCc1cccnc1 [Cpd 23]", "%", 4]
]}

Each of the following entries comes with a recorded value; kindly state Metabolic Stability human (30 minutes): percent of prodrug metabolized to riluzole for each.
1. CCCOC(=O)Nc1nc2ccc(OC(F)(F)F)cc2s1 [Cpd 14]
2. O=C(Cc1ccccc1[N+](=O)[O-])Nc1nc2ccc(OC(F)(F)F)cc2s1 [Cpd 27]
3. CC(C)COC(=O)Nc1nc2ccc(OC(F)(F)F)cc2s1 [Cpd 16]

RESULT:
34
22
14
